# Binding Response per entry
# System tested: T1, IL13RA2 Protein, Rhesus macaque, His tag (Rhesus macaque, UniProt A0A5F8A9D9 27-343)
# T1 construct: the summary sentence says cynomolgous; also called Rhesus macaque IL13R alpha 2 protein with His tag; cynomolgous IL 13RA2 (as the text calls it); not shown: His tag
# T1 sequence: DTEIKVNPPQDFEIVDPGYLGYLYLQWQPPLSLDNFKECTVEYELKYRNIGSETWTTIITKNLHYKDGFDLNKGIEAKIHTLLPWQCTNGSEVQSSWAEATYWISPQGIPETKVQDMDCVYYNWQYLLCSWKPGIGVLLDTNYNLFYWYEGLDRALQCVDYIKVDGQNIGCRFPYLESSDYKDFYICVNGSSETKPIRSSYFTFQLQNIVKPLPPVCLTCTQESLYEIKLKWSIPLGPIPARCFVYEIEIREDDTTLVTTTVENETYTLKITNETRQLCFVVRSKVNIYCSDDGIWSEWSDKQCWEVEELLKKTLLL
# Protocol details: BLI; biotinylated VHH captured on streptavidin biosensor, antigen 1 uM in solution
# Protocol: Binding Affinity for the VH domains with IL13Rα2 are calculated as follows: Biotinylated VHHs were individually captured on streptavidin biosensors. VHH-captured biosensors were dipped in wells containing antigen and the binding response was measured. Biosensors were later dipped in buffer wells to observe the dissociation of bound antigen from captured VHH. (Schematic representation of the process depicted in FIG. 26, upper left corner). […]
Number in nm, nothing else.

>>> result_number("VH52f3 (VHH, biotinylated (site not stated), Expressed in E. coli and 6xHIS purified; also called VH52f3 Biotin; Anti-IL13Rα2 VH52) VHH: QVQLQESGGGLVQPGGSLRLSCEVSGSIFSINRMAWYRQVPEKEREMVAQITYGDTIKYYGSAKGRFTISRDSAKNAVYLQMNSLKPEDTAVYRCNIVGVLTTGHYEDSFWGQGTQVTVPS")
1.13
>>> result_number("VH43f2 (VHH, biotinylated (site not stated), Expressed in E. coli and 6xHIS purified; also called VH43f2-Biotin; Anti-IL13Rα2 VH43) VHH: QVQLQESGGGLVQPGGSLRLSCTASGSIRGIGYMAWGRQGPGKPRELIATINSAGDTNYAESVKGRFTVSRDNAENTLYLQMNNLKSEDTAVYYCNARPGLQSYWGQGTQVTVSS")
0.96
>>> result_number("VH36f1 (VHH, biotinylated (site not stated), Expressed in E. coli and 6xHIS purified; also called VH36f1 Biotin; Anti-IL13Rα2 VH36) VHH: QVQLQESGGGSVQPGGSLRLSCAASGINISSDVMEWFRQGPGEQRELVAHITTNSRTEYADFVKGRFTISRANAKNTLYLQMNGLKPEDTALYYCALRRGGRILWGQGTQVTVSS")
1.02

Let us examine a further case.
What the record says about VH53f3 (VHH, biotinylated (site not stated), Expressed in E. coli and 6xHIS purified; also called VH53f3 Biotin; Anti-IL13Rα2 VH53) VHH: QVQLQESGGGLVQPGGSLRLSCEVSGSISSINRMAWYRQVPGKEREMVAQITYGDTIKYYGSAKGRFTISKDSAKNAVYLQMNSLKPEDTAVYRCNIVGVLTTGHYENSFWGQGTQVTVSS : Binding Response is 1.35

Just for reference, patent US20250090663A1 is where these values come from.
